Tested on: MDR1 (P-gp)
Assay: MDR1-MDCK assay, blood-brain-barrier penetration potential
Format: in vitro ADME
Details: dog, MDCK-MDR1, pH 7.4; Papp (B-to-A)/Papp (A-to-B), P-gp
Assay Readout: efflux ratio at 120 min, 5 μM
Just the number.

Task: # return efflux ratio at 120 min, 5 μM of O=C(COc1ccccc1C(=O)NC[C@@H]1CCCO1)Nc1ccc(Br)cc1 (system: MDR1 (P-gp))
Result: 1.1

---

Tested on: MDR1 (P-gp)
Assay: MDR1-MDCK assay, blood-brain-barrier penetration potential
Assay type: in vitro ADME
Details: dog, MDCK-MDR1, pH 7.4, A to B, replicate 2, 5 μM, 120 minutes; read-out: Papp R2
Assay Readout: Papp A→B at 120 min, 5 μM (×10⁻⁶ cm/s)
Your answer is read as ×10⁻⁶ cm/s, so omit the unit and give the number.

Task: For the compound O=C(COc1ccccc1C(=O)NC[C@@H]1CCCO1)Nc1ccc(Br)cc1 , give its reported Papp A→B at 120 min, 5 μM.
Result: 30.8
